Reference source: the supplement of paper PMC10266784

B1: library; numbered along this chain (parent)
chain: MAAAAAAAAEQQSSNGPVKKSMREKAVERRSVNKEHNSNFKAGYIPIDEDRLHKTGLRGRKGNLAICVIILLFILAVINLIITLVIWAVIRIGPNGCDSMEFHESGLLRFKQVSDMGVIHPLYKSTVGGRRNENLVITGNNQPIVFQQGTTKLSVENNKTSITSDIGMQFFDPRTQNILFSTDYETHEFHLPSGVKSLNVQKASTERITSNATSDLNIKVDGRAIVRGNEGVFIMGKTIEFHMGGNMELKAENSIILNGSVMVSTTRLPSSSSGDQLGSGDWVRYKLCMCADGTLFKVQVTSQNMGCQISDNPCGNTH

# Variants of: B1
# test: SGCB cell-surface expression functional score (HA stain, bin4 vs bin1, normalised to synonymous) (log10 ratio); higher = more cell-surface SGCB (functional)
The label depends only on SGCB cell-surface expression functional score (log10): fulfilled if it is at least -0.03, not fulfilled if it is smaller.

Consider the worked cases shown below.
L84V : fulfilled
V32P : fulfilled
V89K : fulfilled

Does SGCB cell-surface expression functional score (log10) meet or surpass -0.03 for N177I ?
fulfilled

Does SGCB cell-surface expression functional score (log10) meet or surpass -0.03 for S254H ?
fulfilled

Does SGCB cell-surface expression functional score (log10) meet or surpass -0.03 for I239R ?
not fulfilled

Does SGCB cell-surface expression functional score (log10) meet or surpass -0.03 for H187C ?
fulfilled

Does SGCB cell-surface expression functional score (log10) meet or surpass -0.03 for A65Q ?
not fulfilled

Does SGCB cell-surface expression functional score (log10) meet or surpass -0.03 for A7K ?
fulfilled

Does SGCB cell-surface expression functional score (log10) meet or surpass -0.03 for R109N ?
not fulfilled

Does SGCB cell-surface expression functional score (log10) meet or surpass -0.03 for R227D ?
fulfilled

Does SGCB cell-surface expression functional score (log10) meet or surpass -0.03 for E24T ?
fulfilled

Does SGCB cell-surface expression functional score (log10) meet or surpass -0.03 for Q299E ?
fulfilled

Does SGCB cell-surface expression functional score (log10) meet or surpass -0.03 for S214R ?
not fulfilled

Does SGCB cell-surface expression functional score (log10) meet or surpass -0.03 for F296P ?
not fulfilled
